Target: Recombinant SHP-1 protein (Homo sapiens, UniProt P29350)
Sequence (P29350 whole entry): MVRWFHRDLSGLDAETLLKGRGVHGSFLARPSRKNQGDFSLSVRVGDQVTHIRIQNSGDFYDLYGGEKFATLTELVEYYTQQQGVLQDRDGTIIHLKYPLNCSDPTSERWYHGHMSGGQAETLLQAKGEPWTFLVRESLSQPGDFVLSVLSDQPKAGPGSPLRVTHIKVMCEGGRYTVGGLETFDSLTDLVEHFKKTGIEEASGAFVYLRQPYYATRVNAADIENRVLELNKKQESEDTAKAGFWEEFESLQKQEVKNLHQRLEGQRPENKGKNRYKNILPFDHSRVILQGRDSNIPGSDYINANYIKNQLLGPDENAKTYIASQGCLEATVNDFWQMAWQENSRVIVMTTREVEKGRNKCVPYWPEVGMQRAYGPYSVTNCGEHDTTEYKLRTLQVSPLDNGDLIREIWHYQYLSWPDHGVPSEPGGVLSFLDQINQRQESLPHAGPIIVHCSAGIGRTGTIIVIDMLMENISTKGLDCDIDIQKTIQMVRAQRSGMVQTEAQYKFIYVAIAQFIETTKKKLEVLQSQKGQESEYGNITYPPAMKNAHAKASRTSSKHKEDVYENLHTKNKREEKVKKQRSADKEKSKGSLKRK
Assay: SHP-1 phosphatase activity assay (RediPlate 96 EnzChek Tyrosine Phosphatase Assay kit)
Assay type: biochemical
Conditions: SC derivatives at 1 μM for 2 hr; recombinant SHP-1 25 ng; control DMSO = 100; mean±SD (N=3)
Description: Effects of SC Derivatives on Phosphatase Activity in Recombinant SHP-1 RediPlate 96 EnzChek Tyrosine Phosphatase Assay kit (R-22067) was used for SHP-1 activity assay (Molecular Probes). Recombinant SHP-1 protein (25 ng) was reacted with SC derivatives at 1 μM for 2 hr. Then the SHP-1 phosphatase activity assay was performed according to the user's manual and the absorbance was measured at 465 nm. The control group was DMSO, which functioned as the solvent of the SC derivatives. […]
measurement label: SHP-1 Activity (% of control)

Answered examples (7):
N#Cc1ccc(Oc2ccc3c(c2)OCCN3C(=O)Nc2ccc(F)c(C(F)(F)F)c2)cc1 [compound 166]; 51.89 ± 8.16 % of control
N#Cc1ccc(Oc2cc(NC(=O)Nc3cc(C(F)(F)F)cc(C(F)(F)F)c3)ccc2Cl)cc1Cl [compound 180]; 105.52 ± 0.87 % of control
Cc1ccc(NC(=O)Nc2ccc(Cl)c(C(F)(F)F)c2)cc1Oc1ccc(C#N)c(F)c1 [compound 88]; 100.48 ± 13.31 % of control
Cc1cc(Oc2cc(NC(=O)Nc3cccc(C(F)(F)F)c3)ccc2Cl)ccc1C#N [compound 174]; 203.95 ± 30.20 % of control
Cc1cc(Oc2cc(NC(=O)Nc3cc(C(F)(F)F)cc(C(F)(F)F)c3)ccc2Cl)ccc1C#N [compound 176]; 112.57 ± 3.69 % of control
N#CCc1ccc(NC(=O)N2CCOc3ccc(Oc4ccc(C#N)cc4)cc32)cc1 [compound 160]; 116.47 ± 6.60 % of control
Cc1ccc(NC(=O)Nc2ccc(Cl)c(C(F)(F)F)c2)cc1Oc1ccc(C#N)c2ccccc12 [compound 114]; 156.85 ± 6.04 % of control

API: the following record is the query input.
Inquiry: Enter reported SHP-1 Activity (% of control) observed with Recombinant SHP-1 protein (Homo sapiens, UniProt P29350) for Cc1ccc(Oc2ccc(C#N)cc2)cc1NC(=O)Nc1cc(Oc2ccc(C#N)cc2)ccc1C [compound 93]
Reply text: 94.07 ± 0.82 % of control

###

Recorded IC50 values for a group of compounds are listed next.
System: PLC5 cells (a hepatocellular carcinoma cell line)
Experiment: Cytotoxicity, MTT cell viability assay
Format: cell-based
Conditions: 72 h exposure

Answered examples (6):
N#Cc1ccc(Oc2ccc3c(c2)OCCN3C(=O)Nc2ccc(F)c(C(F)(F)F)c2)cc1 [compound 166]; 1320 nM
N#Cc1ccc(Oc2ccc(F)c(NC(=O)Nc3ccc(F)c(C(F)(F)F)c3)c2)cc1 [compound 145]; 850 nM
N#Cc1ccc(Oc2ccc(NC(=O)Nc3ccc(Oc4ccc(C#N)cc4)cc3F)c(F)c2)cc1 [compound 106]; > 10000 nM
Cc1ccc(NC(=O)Nc2ccc(C)c(Oc3ccc(C#N)nc3)c2)cc1Oc1ccc(C#N)cc1 [compound 99]; 180 nM
Cc1ccc(NC(=O)Nc2ccc(Cl)c(C(F)(F)F)c2)cc1Oc1ccc(C#N)nc1 [compound 87]; 970 nM
C#Cc1cccc(NC(=O)Nc2ccc(Cl)c(Oc3ccc(C#N)cc3)c2)c1 [compound 140]; 830 nM

Inquiry: Need IC50, item N#Cc1ccc(Oc2ccc(Cl)c(NC(=O)Nc3cc(Oc4ccc(C#N)cc4)ccc3Cl)c2)cc1 [compound 91]
Reply text: > 10000 nM

Inquiry: For Cc1ccc(NC(=O)C2(C(=O)O)CC2)cc1Oc1ccc(C#N)cc1 [compound 68] then?
Reply text: > 10000 nM

###

Recorded SHP-1 Activity (% of control) values for a group of compounds are listed next.
Target: Recombinant SHP-1 protein (Homo sapiens)
Test: SHP-1 phosphatase activity assay (RediPlate 96 EnzChek Tyrosine Phosphatase Assay kit)
Format: biochemical
Details: SC derivatives at 1 μM for 2 hr; recombinant SHP-1 25 ng; control DMSO = 100; mean±SD (N=3)

Inquiry: Need SHP-1 Activity (% of control), item N#Cc1ccc(Oc2ccc(NC(=O)Nc3ccc(Cl)c(C(F)(F)F)c3)c(F)c2)cc1 [compound 96]
Reply text: 194.52 ± 17.89 % of control

Inquiry: For Cc1ccc(NC(=O)C2(C(=O)O)CC2)cc1Oc1ccc(C#N)cc1 [compound 68] then?
Reply text: 84.36 ± 11.31 % of control

Inquiry: For Cc1ccc(NC(=O)Nc2ccc(C)c(Oc3ccc(C#N)c(Cl)c3)c2)cc1Oc1ccc(C#N)nc1 [compound 103] then?
Reply text: 123.75 ± 32.58 % of control

Inquiry: For N#Cc1ccc(Oc2ccc3c(c2)N(C(=O)Nc2ccc(F)c(C(F)(F)F)c2)CCO3)cc1 [compound 156] then?
Reply text: 112.47 ± 7.98 % of control

Inquiry: For N#Cc1ccc(Oc2cc(NC(=O)Nc3cccc(C(F)(F)F)c3)ccc2Cl)cc1 [compound 138] then?
Reply text: 196.54 ± 22.4 % of control

Inquiry: For Cc1cc(Oc2cc(NC(=O)Nc3ccc(F)c(C(F)(F)F)c3)ccc2Cl)ccc1C#N [compound 177] then?
Reply text: 103.52 ± 1.13 % of control

Inquiry: For C#Cc1cccc(NC(=O)Nc2ccc(Cl)c(Oc3ccc(C#N)cc3)c2)c1 [compound 140] then?
Reply text: 140.81 ± 2.48 % of control

Inquiry: For N#CCc1ccc(Oc2ccc(NC(=O)Nc3ccc(F)c(C(F)(F)F)c3)cc2)cc1 [compound 168] then?
Reply text: 147.25 ± 78.63 % of control

Inquiry: For N#Cc1ccc(Oc2ccc3c(c2)OCCN3C(=O)Nc2cccc(C(F)(F)F)c2)cc1 [compound 163] then?
Reply text: 142.36 ± 2.16 % of control

###

Target: Recombinant SHP-1 protein (Homo sapiens, UniProt P29350)
Assay: SHP-1 phosphatase activity assay (RediPlate 96 EnzChek Tyrosine Phosphatase Assay kit)
Assay type: biochemical
Settings: SC derivatives at 1 μM for 2 hr; recombinant SHP-1 25 ng; control DMSO = 100; mean±SD (N=3)
Recorded SHP-1 Activity (% of control) values for a group of compounds are listed next.

Answered examples (2):
N#CCc1ccc(Oc2ccc(NC(=O)Nc3ccc(Cl)c(C(F)(F)F)c3)cc2)cc1; 116.66 ± 17.26 % of control
N#Cc1ccc(Oc2cc(NC(=O)Nc3ccc(Cl)c(C(F)(F)F)c3)ccc2Cl)cc1Cl; 99.11 ± 7.09 % of control

Inquiry: Need SHP-1 Activity (% of control), item "N#Cc1ccc(Oc2cc(NC(=O)Nc3ccc(F)c(Oc4ccc(C#N)cc4)c3)ccc2F)cc1"
Reply text: 146.18 ± 14.74 % of control

Inquiry: For "N#Cc1ccc(Oc2ccc3cccc(NC(=O)C4(C(=O)O)CC4)c3c2)cc1" then?
Reply text: 111.30 ± 9.50 % of control

Inquiry: For "N#Cc1ccc(Oc2ccc3cccc(NC(=O)Nc4ccc(Cl)c(C(F)(F)F)c4)c3c2)cc1Cl" then?
Reply text: 143.61 ± 5.36 % of control

Inquiry: For "N#Cc1ccc(Oc2ccc3cccc(NC(=O)Nc4ccc(Cl)c(C(F)(F)F)c4)c3c2)cc1" then?
Reply text: 131.47 ± 14.99 % of control

Inquiry: For "Cc1ccc(NC(=O)Nc2ccc(Cl)c(C(F)(F)F)c2)cc1Oc1ccc(C#N)cc1" then?
Reply text: 253.18 ± 26.17 % of control

###

Recorded IC50 values for a group of compounds are listed next.
Test system: PLC5 cells (a hepatocellular carcinoma cell line)
Experiment: Cytotoxicity, MTT cell viability assay
Assay type: cell-based
Conditions: 72 h exposure
Number only, in nM; omit the unit.

Answered examples (5):
N#Cc1ccc(Oc2cc(NC(=O)Nc3ccc(Cl)c(C(F)(F)F)c3)ccc2Cl)cc1Cl [compound 179]; 950
N#Cc1ccc(Oc2cc(NC(=O)Nc3cc(C(F)(F)F)cc(C(F)(F)F)c3)ccc2Cl)cc1Cl [compound 180]; 780
Cc1ccc(NC(=O)Nc2cccc(C(F)(F)F)c2)cc1Oc1ccc(C#N)cc1 [compound 134]; 740
Cc1ccc(NC(=O)Nc2ccc(CC#N)cc2)cc1Oc1ccc(C#N)cc1 [compound 135]; 1850
Cc1cc(Oc2cc(NC(=O)Nc3cccc(C(F)(F)F)c3)ccc2Cl)ccc1C#N [compound 174]; 1460

API: the following record is the query input.
Inquiry: Need IC50, item N#Cc1ccc(Oc2ccc(Cl)c(NC(=O)Nc3cc(C(F)(F)F)cc(C(F)(F)F)c3)c2)cc1 [compound 141]
Reply text: 280

###

Recorded pIC50 values for a group of compounds are listed next.
Test system: PLC5 cells (a hepatocellular carcinoma cell line)
Test: Cytotoxicity, MTT cell viability assay
Format: cell-based
Conditions: 72 h exposure
// pIC50 here means minus log10 of the molar concentration (mol/L)

N#Cc1ccc(Oc2ccc(Cl)c(NC(=O)Nc3ccc(F)c(C(F)(F)F)c3)c2)cc1; 6.21
N#CCc1ccc(NC(=O)N2CCOc3cc(Oc4ccc(C#N)cc4)ccc32)cc1; 5.59
N#Cc1ccc(Oc2ccc(NC(=O)Nc3ccc(Cl)c(C(F)(F)F)c3)c(F)c2)cc1; 6.39

API: the following record is the query input.
Inquiry: Need pIC50, item "Cc1ccc(NC(=O)Nc2ccc(Cl)c(C(F)(F)F)c2)cc1Oc1ccc(C#N)c(Br)c1"
Reply text: 6.08
